# experimental_system: UniProt:Q12809
# Sequence (Q12809 whole entry): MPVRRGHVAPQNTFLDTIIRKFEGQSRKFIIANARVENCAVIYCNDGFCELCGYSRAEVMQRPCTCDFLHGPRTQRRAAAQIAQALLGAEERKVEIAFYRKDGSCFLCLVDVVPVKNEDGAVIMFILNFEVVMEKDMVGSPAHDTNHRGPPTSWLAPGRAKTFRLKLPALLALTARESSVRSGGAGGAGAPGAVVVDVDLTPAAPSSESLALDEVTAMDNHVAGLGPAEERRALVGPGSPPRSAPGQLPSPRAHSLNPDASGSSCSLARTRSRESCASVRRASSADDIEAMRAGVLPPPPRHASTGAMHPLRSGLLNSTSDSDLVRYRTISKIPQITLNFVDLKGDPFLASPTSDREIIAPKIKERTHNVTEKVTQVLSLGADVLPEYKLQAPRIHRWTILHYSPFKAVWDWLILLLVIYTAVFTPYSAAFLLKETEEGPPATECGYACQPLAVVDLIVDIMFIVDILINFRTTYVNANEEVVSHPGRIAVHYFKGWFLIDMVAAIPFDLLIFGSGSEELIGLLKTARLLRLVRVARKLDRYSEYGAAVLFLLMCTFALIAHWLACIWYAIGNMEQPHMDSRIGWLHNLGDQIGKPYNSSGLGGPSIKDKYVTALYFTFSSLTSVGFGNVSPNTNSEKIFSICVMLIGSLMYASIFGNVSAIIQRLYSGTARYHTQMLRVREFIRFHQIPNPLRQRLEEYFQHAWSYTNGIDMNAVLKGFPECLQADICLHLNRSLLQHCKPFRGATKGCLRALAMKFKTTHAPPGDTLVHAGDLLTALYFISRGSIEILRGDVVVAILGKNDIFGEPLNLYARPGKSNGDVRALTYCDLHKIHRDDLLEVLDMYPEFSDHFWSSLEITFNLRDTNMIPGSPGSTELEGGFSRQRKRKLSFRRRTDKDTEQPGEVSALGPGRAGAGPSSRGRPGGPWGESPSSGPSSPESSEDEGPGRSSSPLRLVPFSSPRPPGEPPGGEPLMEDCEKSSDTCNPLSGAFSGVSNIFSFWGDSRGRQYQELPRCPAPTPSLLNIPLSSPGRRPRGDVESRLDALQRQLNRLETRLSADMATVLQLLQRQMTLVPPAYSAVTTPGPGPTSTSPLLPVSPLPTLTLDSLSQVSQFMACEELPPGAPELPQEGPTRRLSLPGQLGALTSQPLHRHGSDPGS
# protocol_notes: Inhibition of human ERG stably expressed in CHO cells at 0.3 uM by whole-cell patch clamp method relative to control
# Assay type: toxicity, cell-based
# assay_context: CHO cells stably expressing human ERG
Catalogue of inhibition at 0.3 µM readings, one per entry.
metric_name: inhibition at 0.3 µM (%)

> print(dat)
                                   compound           metric.name  measured.number
1  COc1cc(N)c(Cl)cc1C(=O)NC1CCN(CCCOc2ccc(F)cc2)CC1OC (configuration not stated) [CISAPRIDE]  inhibition at 0.3 µM             98.2
2         COc1ccc2cc(C(=O)OCCN3CCOCC3)oc2c1  inhibition at 0.3 µM             2.36
